- EXPERIMENTAL SYSTEM: T1, Acro SARS-CoV-2 (COVID-19) S1 protein (SARS-CoV-2, UniProt P0DTC2 16-685)
- T1 construct: also called SARS-CoV-2 S1
- EXPERIMENTAL DETAILS: SPR
pKd: −log10 of the molar value.
Each item that follows carries a reported pKd.

BINDER: variant 6-42 (Fc fusion) VHH: EVQLVESGGGLVQPGGSLRLSCAASGDTYGSYWMGWFRQAPGKEREFVAVITSGGSTNYADSVKGRFTISADNSKNTAYLQMNSLKPEDTAVYYCTHVQNSYYYAMDVWGQGTLVTVSS
pKd: 8.00

BINDER: variant 6-10 (Fc fusion) VHH: EVQLVESGGGLVQPGGSLRLSCAASGSIASIHAMGWFRQAPGKEREFVAAISRSGGFGSYADSVKGRFTISADNSKNTAYLQMNSLKPEDTAVYYCARDDKYYDSSGYPAYFQHWGQGTLVTVSS
pKd: 7.53

BINDER: variant 6-13 (Fc fusion) VHH: EVQLVESGGGLVQPGGSLRLSCAASGLTFNDYAMGWFRQAPGKEREFVAHIPRSTYSPYYADSVKGRFTISADNSKNTAYLQMNSLKPEDTAVYYCAFLVGPQGVDHGAFDVWGQGTLVTVSS
pKd: 7.60

BINDER: variant 5-60 (Fc fusion) VHH: EVQLVESGGGLVQPGGSLRLSCAASGRSFSSHRMGWFRQAPGKEREFVAAIMWSGSHRNYADSVKGRFTISADNSKNTAYLQMNSLKPEDTAVYYCAAIAYEEGVYRWDWGQGTLVTVSS
pKd: 7.53

BINDER: variant 6-78 (Fc fusion) VHH: EVQLVESGGGLVQPGGSLRLSCAASGRTYDAMGWFRQAPGKEREFVASVTSGGYTHYADSVKGRFTISADNSKNTAYLQMNSLKPEDTAVYYCAKFGRKIVGATELDYWGQGTLVTVSS
pKd: 7.72

BINDER: variant 5-20 (Fc fusion) VHH: EVQLVESGGGLVQPGGSLRLSCAASGRTIVPYTMGWFRQAPGKERELVAAISPSAFTEYADSVKGRFTISADNSKNTAYLQMNSLKPEDTAVYYCAARRWGYDWGQGTLVTVSS
pKd: 7.84

BINDER: variant 6-103 (Fc fusion) VHH: EVQLVESGGGLVQPGGSLRLSCAASGRTSSPIAMGWFRQAPGKEREPVAVRWSDDYTYYADSVKGRFTISADNSKNTAYLQMNSLKPEDTAVYYCAKKLGGYYAFDIWGQGTLVTVSS
pKd: 7.63

BINDER: variant 6-55 (Fc fusion) VHH: EVQLVESGGGLVQPGGSLRLSCAASGFTMSSSWMGWFRQAPGKEREFVARITSGGSTGYADSVKGRFTISADNSKNTAYLQMNSLKPEDTAVYYCASVDGYFDYWGQGTLVTVSS
pKd: 7.60
